Assign growth inhibition to each entry below.
test-summary: NCI Yeast Anticancer Drug Screen. Data for the rad50 strain (AID 155);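 also: 0% = growth of vehicle-only cultures of the same strain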
condition: S. cerevisiae rad50 strain growth inhibition; at 50.0 µM; hits give high values
The panel holds about 79,000 compounds, 15% with a hit somewhere; the sample as a whole holds those more often.
Numbers only, in %.

Worked examples follow.
{"compound": "CC(=O)Nc1ccc[n+](CC(=O)c2ccc(F)cc2)c1", "growth inhibition / %": -8.95}
{"compound": "C=CCn1c(C23CC4CC(CC(C4)C2)C3)n[nH]c1=S", "growth inhibition / %": 27.6}
{"compound": "O=C(O)c1ccc2c(c1)CC1(C2)Cc2ccccc2C1=O (stereo not given)", "growth inhibition / %": -16.4}
{"compound": "O=[N+]([O-])c1cc(C=NCCCCCCN=Cc2ccc(Cl)c([N+](=O)[O-])c2)ccc1Cl", "growth inhibition / %": 6.9}

For the next question, use this compound.
Entry CC(C)c1ccc2c(c1)C=C1OC(=O)[C@]3(C)CCC[C@@]2(C)C13 (stereo not given in full) — recorded growth inhibition = 35.1

Hey, just so you know, these numbers are from PubChem BioAssay (NCI).
